- Test system: 855422-203-R-J1-PDC complex spheroid growth
- METHOD NOTES: Anticancer human tumor 855422-203-R-J1-PDC patient-derived bladder carcinoma cell line growth inhibition [AhR]
- CONDITIONS: second compound 3.16 µM; first compound 0.0316 µM; hits give low values
# strict inequality: viability, T/C < 90% yields true, everything else yields false

I'd appreciate it if you could check whether CC(C)c1c(-c2ccccc2)nc2c(C#N)c[nH]n2c1=O + Cc1ccccc1N=Nc1ccc(NC(=O)c2ccnn2C)c(C)c1 has viability, T/C smaller than 90%.
false

I'd appreciate it if you could check whether CC[C@@]1(O)C(=O)OCc2c1cc1n(c2=O)Cc2cc3c(CN(C)C)c(O)ccc3nc2-1 + CC(CO)NC(=O)c1cc(-c2ccc(Cl)cc2)nn(-c2cnn(C)c2)c1=O has viability, T/C smaller than 90%.
true

I'd appreciate it if you could check whether Cn1ncnc1C1c2n[nH]c(=O)c3cc(F)cc(c23)NC1c1ccc(F)cc1 (stereo unspecified) + CC(CO)NC(=O)c1cc(-c2ccc(Cl)cc2)nn(-c2cnn(C)c2)c1=O has viability, T/C smaller than 90%.
false

I'd appreciate it if you could check whether CC1COCCN1c1cc(C2(S(C)(=N)=O)CC2)nc(-c2ccnc3[nH]ccc23)n1 (stereo unspecified) + CC(CO)NC(=O)c1cc(-c2ccc(Cl)cc2)nn(-c2cnn(C)c2)c1=O has viability, T/C smaller than 90%.
false

###

Give viability, T/C for every item shown.
- System: 855422-203-R-J1-PDC complex spheroid growth
- METHOD NOTES: Anticancer human tumor 855422-203-R-J1-PDC cell line growth inhibition [AhR]
- CONDITIONS: second compound 10 µM; first compound 0.949 µM; hits give low values
Reply with just the number (in %).

Item CCN(c1cc(-c2ccc(CN3CCOCC3)cc2)cc(C(=O)NCc2c(C)cc(C)[nH]c2=O)c1C)C1CCOCC1 + Cc1cncc(-c2nc(NCCc3c[nH]c4ccccc34)c3ncn(C(C)C)c3n2)c1 : provide viability, T/C
4.26

Item O=C(C=Cn1cnc(-c2cc(C(F)(F)F)cc(C(F)(F)F)c2)n1)NNc1cnccn1 + Cc1cncc(-c2nc(NCCc3c[nH]c4ccccc34)c3ncn(C(C)C)c3n2)c1 : provide viability, T/C
7.72

Item CCN(c1cc(-c2ccc(CN3CCOCC3)cc2)cc(C(=O)NCc2c(C)cc(C)[nH]c2=O)c1C)C1CCOCC1 + Cc1ccccc1N=Nc1ccc(NC(=O)c2ccnn2C)c(C)c1 : provide viability, T/C
71.3

###

- System: 855422-203-R-J1-PDC complex spheroid growth
- METHOD NOTES: Anticancer human tumor 855422-203-R-J1-PDC cell line growth inhibition [AhR];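 also: spheroids exposed to agents for seven days before readout; percent of DMSO vehicle control luminescence viability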
- CONDITIONS: second compound 10 µM; first compound 0.0316 µM; hits give low values
READOUT: viability, T/C (%)
Reply with just the number (in %).

Item O=C(c1cc(Cc2n[nH]c(=O)c3ccccc23)ccc1F)N1CCN(C(=O)C2CC2)CC1 + Cc1cncc(-c2nc(NCCc3c[nH]c4ccccc34)c3ncn(C(C)C)c3n2)c1 : provide viability, T/C
16.8

Item O=C(C=Cc1cccc(S(=O)(=O)Nc2ccccc2)c1)NO + Cc1ccccc1N=Nc1ccc(NC(=O)c2ccnn2C)c(C)c1 : provide viability, T/C
87.2

Item CC[C@@]1(O)C(=O)OCc2c1cc1n(c2=O)Cc2cc3c(CN(C)C)c(O)ccc3nc2-1 + Cc1ccccc1N=Nc1ccc(NC(=O)c2ccnn2C)c(C)c1 : provide viability, T/C
48.7

Item Nc1ccn(C2OC(CO)C(O)C2(F)F)c(=O)n1 (configuration not stated) + Cc1cncc(-c2nc(NCCc3c[nH]c4ccccc34)c3ncn(C(C)C)c3n2)c1 : provide viability, T/C
6.33

Item COc1cc(C2c3cc4c(cc3C(OC3OC5COC(C)OC5C(O)C3O)C3COC(=O)C23)OCO4)cc(OC)c1O (configuration not stated) + Cc1ccccc1N=Nc1ccc(NC(=O)c2ccnn2C)c(C)c1 : provide viability, T/C
83

Item CC(C)c1c(-c2ccccc2)nc2c(C#N)c[nH]n2c1=O + Cc1cncc(-c2nc(NCCc3c[nH]c4ccccc34)c3ncn(C(C)C)c3n2)c1 : provide viability, T/C
5.73

Item CC(C)c1c(-c2ccccc2)nc2c(C#N)c[nH]n2c1=O + Cc1ccccc1N=Nc1ccc(NC(=O)c2ccnn2C)c(C)c1 : provide viability, T/C
81.8

Item Nc1ncn(C2CC(O)C(CO)O2)c(=O)n1 (configuration not stated) + Cc1cncc(-c2nc(NCCc3c[nH]c4ccccc34)c3ncn(C(C)C)c3n2)c1 : provide viability, T/C
2.54

Item Nc1ccccc1NC(=O)c1ccc(CNC(=O)OCc2cccnc2)cc1 + Cc1ccccc1N=Nc1ccc(NC(=O)c2ccnn2C)c(C)c1 : provide viability, T/C
85.3

Item CC1(C)CCC(CN2CCN(c3ccc(C(=O)NS(=O)(=O)c4ccc(NCC5CCOCC5)c([N+](=O)[O-])c4)c(Oc4cnc5[nH]ccc5c4)c3)CC2)=C(c2ccc(Cl)cc2)C1 + Cc1cncc(-c2nc(NCCc3c[nH]c4ccccc34)c3ncn(C(C)C)c3n2)c1 : provide viability, T/C
38

Item CC1(C)CCC(CN2CCN(c3ccc(C(=O)NS(=O)(=O)c4ccc(NCC5CCOCC5)c([N+](=O)[O-])c4)c(Oc4cnc5[nH]ccc5c4)c3)CC2)=C(c2ccc(Cl)cc2)C1 + CC(CO)NC(=O)c1cc(-c2ccc(Cl)cc2)nn(-c2cnn(C)c2)c1=O : provide viability, T/C
94.8

Item CC1COCCN1c1cc(-c2ccnn2C)c2ccnc(-c3ccn[nH]3)c2n1 (configuration not stated) + Cc1ccccc1N=Nc1ccc(NC(=O)c2ccnn2C)c(C)c1 : provide viability, T/C
76.4

###

- Test system: 855422-203-R-J1-PDC complex spheroid growth
- METHOD NOTES: Anticancer human tumor 855422-203-R-J1-PDC cell line growth inhibition [AhR];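 also: spheroids exposed to agents for seven days before readout; percent of DMSO vehicle control luminescence viability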
- CONDITIONS: second compound 10 µM; first compound 0.0316 µM; hits give low values
Give viability, T/C for every item shown.

Item COc1cccc2c1C(=O)c1c(O)c3c(c(O)c1C2=O)CC(O)(C(=O)CO)CC3OC1CC(N)C(O)C(C)O1 (stereo not drawn) + Cc1cncc(-c2nc(NCCc3c[nH]c4ccccc34)c3ncn(C(C)C)c3n2)c1 : provide viability, T/C
4.02%

Item CC1COCCN1c1cc(C2(S(C)(=N)=O)CC2)nc(-c2ccnc3[nH]ccc23)n1 (stereo not drawn) + Cc1cncc(-c2nc(NCCc3c[nH]c4ccccc34)c3ncn(C(C)C)c3n2)c1 : provide viability, T/C
23.8%

Item COc1ccc([C@@H](O)c2cc(-c3ncnc4cc(N5CCOCC5)ccc34)c(F)cc2Cl)nn1 + CC(CO)NC(=O)c1cc(-c2ccc(Cl)cc2)nn(-c2cnn(C)c2)c1=O : provide viability, T/C
93.5%

###

- System: 855422-203-R-J1-PDC complex spheroid growth
- METHOD NOTES: Anticancer human tumor 855422-203-R-J1-PDC cell line growth inhibition [AhR];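 also: spheroids exposed to agents for seven days before readout; percent of DMSO vehicle control luminescence viability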
- CONDITIONS: second compound 3.16 µM; first compound 3.16 µM; hits give low values
READOUT: viability, T/C (%)
Reply with just the number (in %).

Item CC(C)c1c(-c2ccccc2)nc2c(C#N)c[nH]n2c1=O + Cc1cncc(-c2nc(NCCc3c[nH]c4ccccc34)c3ncn(C(C)C)c3n2)c1 : provide viability, T/C
68.9

Item Nc1ccccc1NC(=O)c1ccc(CNC(=O)OCc2cccnc2)cc1 + CC(CO)NC(=O)c1cc(-c2ccc(Cl)cc2)nn(-c2cnn(C)c2)c1=O : provide viability, T/C
47.2

Item CC1COCCN1c1cc(C2(S(C)(=N)=O)CC2)nc(-c2ccnc3[nH]ccc23)n1 (stereo not drawn) + CC(CO)NC(=O)c1cc(-c2ccc(Cl)cc2)nn(-c2cnn(C)c2)c1=O : provide viability, T/C
123

###

- Tested on: 855422-203-R-J1-PDC complex spheroid growth
- METHOD NOTES: Anticancer human tumor 855422-203-R-J1-PDC cell line growth inhibition [AhR];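 also: spheroids exposed to agents for seven days before readout; percent of DMSO vehicle control luminescence viability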
- CONDITIONS: second compound 10 µM; first compound 3.16 µM; hits give low values
READOUT: viability, T/C (%)
Reply with just the number (in %).

For 855422-203-R-J1-PDC complex spheroid growth, give viability, T/C of the listed molecule: COc1ccc([C@@H](O)c2cc(-c3ncnc4cc(N5CCOCC5)ccc34)c(F)cc2Cl)nn1 + Cc1ccccc1N=Nc1ccc(NC(=O)c2ccnn2C)c(C)c1
62

For 855422-203-R-J1-PDC complex spheroid growth, give viability, T/C of the listed molecule: Nc1ccccc1NC(=O)c1ccc(CNC(=O)OCc2cccnc2)cc1 + CC(CO)NC(=O)c1cc(-c2ccc(Cl)cc2)nn(-c2cnn(C)c2)c1=O
50.2

For 855422-203-R-J1-PDC complex spheroid growth, give viability, T/C of the listed molecule: Nc1ccccc1NC(=O)c1ccc(CNC(=O)OCc2cccnc2)cc1 + Cc1cncc(-c2nc(NCCc3c[nH]c4ccccc34)c3ncn(C(C)C)c3n2)c1
0.17

For 855422-203-R-J1-PDC complex spheroid growth, give viability, T/C of the listed molecule: Nc1ccn(C2OC(CO)C(O)C2(F)F)c(=O)n1 (stereo unspecified) + Cc1ccccc1N=Nc1ccc(NC(=O)c2ccnn2C)c(C)c1
22.1

For 855422-203-R-J1-PDC complex spheroid growth, give viability, T/C of the listed molecule: COc1cc(Nc2ncc3c(n2)-c2ccc(Cl)cc2C(c2c(F)cccc2OC)=NC3)ccc1C(=O)O + Cc1cncc(-c2nc(NCCc3c[nH]c4ccccc34)c3ncn(C(C)C)c3n2)c1
22.5

For 855422-203-R-J1-PDC complex spheroid growth, give viability, T/C of the listed molecule: Nc1ccn(C2OC(CO)C(O)C2(F)F)c(=O)n1 (stereo unspecified) + Cc1cncc(-c2nc(NCCc3c[nH]c4ccccc34)c3ncn(C(C)C)c3n2)c1
2.26

The origin of these recorded values is PubChem BioAssay AID1919005.
